Each entry below carries its recorded GI50.
System: CCRF-CEM leukemia
Protocol Details: NCI tumour cell line growth inhibition, 48 h
Observable: GI50

{"columns": ["Molecule", "Observable", "Result"],
 "data": [
  ["O=C(c1ccco1)c1c(C(F)(F)F)n([O-])c2ccccc2[n+]1=O", "GI50", "671 nM"],
  ["NS(=O)(=O)c1cccc(N=Cc2c(O)[nH]c3ccccc23)c1", "GI50", "> 25000 nM"],
  ["C=C(c1ccc(C(=O)N(C)c2ccccc2N)cc1)C(C)N1C(=O)[C@H]2CCCN2C(=O)c2ccccc21 (some centres undefined)", "GI50", "27400 nM"],
  ["COc1ccc2c(c1)C(=O)/C(=C/c1ncc([N+](=O)[O-])n1C)O2", "GI50", "141 nM"],
  ["C=CCC1(O)c2cccc(NCCO)c2C(=O)c2c(NCCO)cccc21", "GI50", "> 100000 nM"],
  ["O=c1cc(-c2ccccc2)[nH]n1-c1nc2ccccc2[nH]1", "GI50", "1220 nM"],
  ["C#Cc1c(C(N)=O)ncn1C1OC(COP(=O)(OCc2ccc([N+](=O)[O-])o2)N(C)CCCCCl)C(O)C1O (centres undefined)", "GI50", "21900 nM"],
  ["Cc1ccc2c(O)c(O)cc(NC(C)CCCN)c2n1 (centres undefined)", "GI50", "3730 nM"],
  ["COc1cccc2c1C(=O)c1c(O)c3c(c(O)c1C2=O)C[C@@](O)(C(=O)CO)C[C@@H]3OC1C[C@H](N)[C@H](O)[C@H](C)O1 (some centres undefined)", "GI50", "18.6 nM"]
]}

----------
Test system: COLO 205 colon
Protocol Details: NCI tumour cell line growth inhibition, 48 h
Parameter TGI: see the listing below.
Observable: TGI

{"columns": ["Compound", "Result"],
 "data": [
  ["C=C1C(=O)O[C@H]2[C@H]1CC/C(COC(=O)CSCC(=O)OC/C1=C/CC[C@@]3(C)O[C@H]3[C@H]3OC(=O)C(=C)[C@@H]3CC1)=C\\CC[C@@]1(C)O[C@@H]21", "2.44 µM"],
  ["CC(C)c1ccc(/C=C2\\CSCC3=C2NC(=S)NC3c2ccc(C(C)C)cc2)cc1 (centres undefined)", "> 100 µM"],
  ["NCCNc1cccc2ccccc12", "> 100 µM"],
  ["Cc1cc(NS(=O)(=O)c2ccc(NC(=O)c3cccc4c(Nc5ccc(S(=O)(=O)N=C(N)N)cc5)c5ccccc5nc34)cc2)no1", "> 100 µM"]
]}

----------
# maps each entry to its TGI
System: HOP-62 NSCLC
Protocol Details: NCI tumour cell line growth inhibition, 48 h
Where a SMILES comes first, the peptide text is derived from it. The star is where a group is joined. Boc = CC(C)(C)OC(=O)*; OBn = c1ccc(CO*)cc1
Observable: TGI

{"columns": ["Compound", "Observable", "Result"],
 "data": [
  ["Nc1c(C(=O)Nc2ccccc2)[n+]([O-])c2ccccc2[n+]1[O-]", "TGI", "34.4 µM"],
  ["NC1=NC(c2ccc(Cl)cc2)C2=C(N1)/C(=C/c1ccc(Cl)cc1)CCC2 (stereo not given)", "TGI", "53 µM"],
  ["CC(=O)OC1CC2(O)C3CCC4CC(O)CCC4(C)C3CCC2(C)C1C1=CC(=O)OC1 (stereo not given)", "TGI", "0.178 µM"],
  ["O=C(OCc1ccccc1)C1(N2CN(C3(C(=O)OCc4ccccc4)CCCC3)CN(C3(C(=O)OCc4ccccc4)CCCC3)C2)CCCC1", "TGI", "> 10 µM"],
  ["Nc1ccccc1N/C=C\\C(=O)C(Cl)(Cl)Cl", "TGI", "37.2 µM"],
  ["Cc1ccc(-c2cc(C3=CC(=O)C=CC3=O)n(-c3ccc(S(N)(=O)=O)cc3)n2)cc1", "TGI", "> 100 µM"],
  ["Fc1ccc(C2SCc3nc4ccccc4n32)cc1 (stereo not given)", "TGI", "> 100 µM"],
  ["c1cn2cc(-c3ccc4cn[nH]c4c3)nc(Nc3ccc(N4CCOCC4)cc3)c2n1", "TGI", "16.1 µM"],
  ["CC(NC(=O)C(NC(=O)OC(C)(C)C)C(C)C)C(=O)N1CCCC1C(=O)NCC(=O)NC(C(=O)NCC(=O)OCc1ccccc1)C(C)C (stereo not given) (Boc-VAPGVG-OBn; configuration not given here)", "TGI", "> 100 µM"],
  ["NC(=O)c1ccc2c(c1)S(=O)(=O)c1ccccc1C2=O", "TGI", "> 100 µM"],
  ["O=C1/C(=C/c2ccccc2[N+](=O)[O-])N=C(c2ccccc2)N1C1Nc2cc3c(cc2S1)NC(N1C(=O)/C(=C/c2ccccc2[N+](=O)[O-])N=C1c1ccccc1)S3 (stereo not given)", "TGI", "> 100 µM"],
  ["CN1CC(C(=O)C2C(=O)c3ccccc3C2=O)C(=O)C(=O)C(C(=O)C2C(=O)c3ccccc3C2=O)C1 (stereo not given)", "TGI", "> 10 µM"],
  ["COc1ccc2c(c1)C(c1ccccc1Cl)=Nc1c(n[nH]c1C)N2", "TGI", "> 25 µM"],
  ["O=C(N/N=C/c1cc(Cl)cc(Cl)c1[O-])c1ccccc1O.O=C(N/N=C/c1cc(Cl)cc(Cl)c1[O-])c1ccccc1O.[Ni+2]", "TGI", "2.09 µM"],
  ["CC(=O)O[C@]12CCCC1C1(O)C(O)CCCC12 (stereo not given in full)", "TGI", "> 100 µM"],
  ["O=C(CCl)N1c2ccccc2Sc2ccc3ccccc3c21", "TGI", "3.05 µM"],
  ["O=C1c2c(n(Cc3ccccc3)c(=O)n2Cc2ccccc2)C(=O)N1Cc1ccccc1", "TGI", "> 100 µM"],
  ["CN(NC(=O)CCCl)C1=NCCCCN1", "TGI", "> 100 µM"],
  ["CC(C)NC(=O)OCc1c(COC(=O)NC(C)C)c(-c2ccc(Cl)cc2)n2c1CCC2", "TGI", "16.2 µM"],
  ["CSC1=C(C#N)C(=O)N(c2ccc(C)cc2)C(=S)C1C#N (stereo not given)", "TGI", "> 100 µM"],
  ["O=C1c2c(nc3ccccc3c2-c2ccccc2)CN1Nc1ccccn1", "TGI", "> 100 µM"],
  ["COc1ccc(N=N/C(=N/NC(=O)c2ccccc2)c2ccc(N(CCC#N)CCC#N)cc2C)cc1", "TGI", "> 100 µM"],
  ["O=C1Nc2cc([N+](=O)[O-])ccc2NC1/C(=N\\Nc1ccccc1)C(O)c1cccc([N+](=O)[O-])c1 (stereo not given)", "TGI", "> 100 µM"],
  ["CC(C)c1ccc(/C=C2\\CSCC3=C2NC(=S)NC3c2ccc(C(C)C)cc2)cc1 (stereo not given)", "TGI", "> 100 µM"],
  ["Cn1cc(-c2cnc3ccc4ccc(CS(=O)(=O)NCc5ccccn5)cc4c(=O)c3c2)cn1", "TGI", "> 100 µM"]
]}
